# Tested on: Staphylococcus aureus
# procedure-details: Antimicrobial activity against Staphylococcus aureus ATCC 29213 by modified NCCLS method
# Format: functional, organism-based
observable: MIC
Answers without a unit are incomplete; give the number and then its unit.

Reference set, count: 4
// MIC value for C=C(C)[C@H]1CC[C@H](C)C[C@@H]1c1c(O)cc(/C=C/c2ccccc2O)cc1O [MACHAERIDIOL B] : 6.25 µg/mL

// MIC value for C=C(C)[C@H]1CC[C@H](C)C[C@@H]1c1c(O)cc(/C=C/c2ccccc2)cc1O [MACHAERIDIOL A] : 1.56 µg/mL

// MIC value for C[C@H]1CC[C@H]2[C@H](C1)c1c(O)cc(/C=C/c3ccccc3O)cc1OC2(C)C [MACHAERIOL C] : 1.56 µg/mL

// MIC value for C[C@@H]1C[C@@H]2c3c(O)cc(-c4cc5ccccc5o4)cc3OC(C)(C)[C@H]2C[C@H]1O [MACHAERIOL D] : 50 µg/mL

Let's switch to this compound now.
// MIC value for C=C(C)[C@H]1CC[C@H](C)C[C@@H]1c1c(O)cc(-c2cc3ccccc3o2)cc1O [MACHAERIDIOL C] : 6.25 µg/mL

###

Entries and their measured MBC follow.
# Test system: Staphylococcus aureus
# procedure-details: Antimicrobial activity against methicillin-resistant Staphylococcus aureus ATCC 43300 by modified NCCLS method
# Format: functional, organism-based
// note: answer is a bare numeric in µg/mL

Summary line: "C=C(C)[C@H]1CC[C@H](C)C[C@@H]1c1c(O)cc(/C=C/c2ccccc2)cc1O" , Staphylococcus aureus, reported MBC = 3.13

***
Summary line: "C[C@H]1CC[C@H]2[C@H](C1)c1c(O)cc(/C=C/c3ccccc3O)cc1OC2(C)C" , Staphylococcus aureus, reported MBC = 12.5

Summary line: "C=C(C)[C@H]1CC[C@H](C)C[C@@H]1c1c(O)cc(-c2cc3ccccc3o2)cc1O" , Staphylococcus aureus, reported MBC = 12.5

Summary line: "O=C(O)c1cn(C2CC2)c2cc(N3CCNCC3)c(F)cc2c1=O" , Staphylococcus aureus, reported MBC = 0.31

Summary line: "C=C(C)[C@H]1CC[C@H](C)C[C@@H]1c1c(O)cc(/C=C/c2ccccc2O)cc1O" , Staphylococcus aureus, reported MBC = 6.25

###

# Tested on: Mycobacterium intracellulare
# procedure-details: Antimicrobial activity against Mycobacterium intracellular by Alamar blue assay
# Type: functional, organism-based
Entries and their measured IC50 follow.
// note: answer is a bare numeric in µg/mL

Reference set, count: 3
// IC50 value for "C[C@H]1CC[C@H]2[C@H](C1)c1c(O)cc(/C=C/c3ccccc3O)cc1OC2(C)C" : 20

// IC50 value for "C=C(C)[C@H]1CC[C@H](C)C[C@@H]1c1c(O)cc(/C=C/c2ccccc2)cc1O" : 7

// IC50 value for "O=C(O)c1cn(C2CC2)c2cc(N3CCNCC3)c(F)cc2c1=O" : 0.45

Let's switch to this molecule now.
// IC50 value for "C=C(C)[C@H]1CC[C@H](C)C[C@@H]1c1c(O)cc(-c2cc3ccccc3o2)cc1O" : 10

###

# Tested on: Staphylococcus aureus
# procedure-details: Antimicrobial activity against methicillin-resistant Staphylococcus aureus ATCC 43300 by modified NCCLS method
# Type: functional, organism-based
observable: MIC (µg/mL)
// note: answer is a bare numeric in µg/mL

// MIC value for C=C(C)[C@H]1CC[C@H](C)C[C@@H]1c1c(O)cc(/C=C/c2ccccc2)cc1O [MACHAERIDIOL A] : 1.56

// MIC value for C=C(C)[C@H]1CC[C@H](C)C[C@@H]1c1c(O)cc(/C=C/c2ccccc2O)cc1O [MACHAERIDIOL B] : 6.25

// MIC value for C[C@H]1CC[C@H]2[C@H](C1)c1c(O)cc(/C=C/c3ccccc3O)cc1OC2(C)C [MACHAERIOL C] : 1.56

// MIC value for O=C(O)c1cn(C2CC2)c2cc(N3CCNCC3)c(F)cc2c1=O [CIPROFLOXACIN] : 0.31

Let's switch to this molecule now.
// MIC value for C=C(C)[C@H]1CC[C@H](C)C[C@@H]1c1c(O)cc(-c2cc3ccccc3o2)cc1O [MACHAERIDIOL C] : 6.25

###

# Test system: Cryptococcus neoformans
# procedure-details: Antimicrobial activity against Cryptococcus neoformans ATCC 90113 by modified NCCLS method
# Type: functional, organism-based
observable: IC50
Answers without a unit are incomplete; give the number and then its unit.

Summary line: "C=C(C)[C@H]1CC[C@H](C)C[C@@H]1c1c(O)cc(-c2cc3ccccc3o2)cc1O" , Cryptococcus neoformans, reported IC50 = 25 µg/mL

Summary line: "C=C(C)[C@H]1CC[C@H](C)C[C@@H]1c1c(O)cc(/C=C/c2ccccc2)cc1O" , Cryptococcus neoformans, reported IC50 = 15 µg/mL

Summary line: "C=C(C)[C@H]1CC[C@H](C)C[C@@H]1c1c(O)cc(/C=C/c2ccccc2O)cc1O" , Cryptococcus neoformans, reported IC50 = 3.5 µg/mL

Let's switch to this molecule now.
Summary line: "C[C@H]1CC[C@H]2[C@H](C1)c1c(O)cc(/C=C/c3ccccc3O)cc1OC2(C)C" , Cryptococcus neoformans, reported IC50 = 40 µg/mL

###

# Tested on: Aspergillus fumigatus
# procedure-details: Antimicrobial activity against Aspergillus fumigatus ATCC 90906 by modified NCCLS method
# Assay type: functional, organism-based
observable: MIC (µg/mL)
// note: answer is a bare numeric in µg/mL

Summary line: C=C(C)[C@H]1CC[C@H](C)C[C@@H]1c1c(O)cc(/C=C/c2ccccc2)cc1O [MACHAERIDIOL A] , Aspergillus fumigatus, reported MIC = 12.5

Summary line: C[C@@H]1[C@H](O)[C@@H](C)/C=C/C=C/C=C/C=C/C=C/C=C/C=C/[C@H](O[C@@H]2O[C@H](C)[C@@H](O)[C@H](N)[C@@H]2O)C[C@@H]2O[C@](O)(C[C@@H](O)C[C@@H](O)[C@H](O)CC[C@@H](O)C[C@@H](O)CC(=O)O[C@H]1C)C[C@H](O)[C@H]2C(=O)O [AMPHOTERICIN B] , Aspergillus fumigatus, reported MIC = 1.25

Summary line: C[C@H]1CC[C@H]2[C@H](C1)c1c(O)cc(/C=C/c3ccccc3O)cc1OC2(C)C [MACHAERIOL C] , Aspergillus fumigatus, reported MIC = 100

Let's switch to this molecule now.
Summary line: C=C(C)[C@H]1CC[C@H](C)C[C@@H]1c1c(O)cc(/C=C/c2ccccc2O)cc1O [MACHAERIDIOL B] , Aspergillus fumigatus, reported MIC = 10

###

Entries and their measured IC50 follow.
# Tested on: Staphylococcus aureus
# procedure-details: Antimicrobial activity against Staphylococcus aureus ATCC 29213 by modified NCCLS method
# Format: functional, organism-based

Reference set, count: 5
// IC50 value for "C[C@H]1CC[C@H]2[C@H](C1)c1c(O)cc(/C=C/c3ccccc3O)cc1OC2(C)C" : 0.65 µg/mL

// IC50 value for "C=C(C)[C@H]1CC[C@H](C)C[C@@H]1c1c(O)cc(/C=C/c2ccccc2O)cc1O" : 2.6 µg/mL

// IC50 value for "O=C(O)c1cn(C2CC2)c2cc(N3CCNCC3)c(F)cc2c1=O" : 0.15 µg/mL

// IC50 value for "C=C(C)[C@H]1CC[C@H](C)C[C@@H]1c1c(O)cc(/C=C/c2ccccc2)cc1O" : 1 µg/mL

// IC50 value for "C[C@@H]1C[C@@H]2c3c(O)cc(-c4cc5ccccc5o4)cc3OC(C)(C)[C@H]2C[C@H]1O" : 25 µg/mL

Let's switch to this compound now.
// IC50 value for "C=C(C)[C@H]1CC[C@H](C)C[C@@H]1c1c(O)cc(-c2cc3ccccc3o2)cc1O" : 3 µg/mL

###

# System: Candida albicans
# procedure-details: Antimicrobial activity against Candida albicans ATCC 90028 by modified NCCLS method
# Type: functional, organism-based
observable: IC50 (mg/L)
// note: answer is a bare numeric in mg/L

Reference set, count: 3
// IC50 value for "C=C(C)[C@H]1CC[C@H](C)C[C@@H]1c1c(O)cc(/C=C/c2ccccc2)cc1O" : 3.5

// IC50 value for "C[C@H]1CC[C@H]2[C@H](C1)c1c(O)cc(/C=C/c3ccccc3O)cc1OC2(C)C" : 20

// IC50 value for "C=C(C)[C@H]1CC[C@H](C)C[C@@H]1c1c(O)cc(/C=C/c2ccccc2O)cc1O" : 2

Let's switch to this compound now.
// IC50 value for "C=C(C)[C@H]1CC[C@H](C)C[C@@H]1c1c(O)cc(-c2cc3ccccc3o2)cc1O" : 45
